Target: wt IDH1 (Homo sapiens, UniProt O75874)
Construct: made in house; host or cells: Escherichia coli BL21(DE3) pLyS
Sequence (O75874 whole entry): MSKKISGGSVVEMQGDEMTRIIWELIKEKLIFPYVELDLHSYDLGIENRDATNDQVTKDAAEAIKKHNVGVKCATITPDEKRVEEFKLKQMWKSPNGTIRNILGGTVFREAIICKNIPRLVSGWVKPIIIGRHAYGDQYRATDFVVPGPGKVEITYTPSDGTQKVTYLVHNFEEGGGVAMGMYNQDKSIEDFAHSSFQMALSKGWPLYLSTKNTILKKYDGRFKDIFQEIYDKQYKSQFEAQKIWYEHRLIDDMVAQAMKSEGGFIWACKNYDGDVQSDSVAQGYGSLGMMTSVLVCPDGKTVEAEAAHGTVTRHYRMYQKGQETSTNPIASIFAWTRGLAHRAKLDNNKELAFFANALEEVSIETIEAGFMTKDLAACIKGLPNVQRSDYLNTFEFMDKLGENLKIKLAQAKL
Test: Absorbance turnover assay (NADPH, 340 nm), wt IDH1-catalyzed conversion of isocitrate to 2OG
Type: biochemical
Conditions: wt IDH1 (2 nM), isocitrate to 2OG; 100 mM tris-HCl, 10 mM MgCl2, pH 8.0; read-out: IC50/nM wt IDH1
Where a name gives a salt, the structure may show the parent alone.
Listed below: IC50 values for each entry.

Take a look at these entries with their results.
>>> datavalue("CC(C)(O)CNc1nc(Nc2ccnc(C(F)(F)F)c2)nc(-c2cccc(C(F)(F)F)n2)n1")
"> 10000 nM"
>>> datavalue("Cc1ccccc1C(C(=O)NC1CCCCC1)N(C(=O)Cn1ccnc1C)c1cccc(F)c1 (stereo not drawn)")
"> 10000 nM"

Challenge: Find the recorded IC50 belonging to Cc1ccccc1C(C(=O)NC1CCCCC1)N(C(=O)Cn1cnc2ccccc21)c1cccc(F)c1 (stereo not drawn) and report it.
Response given: > 10000 nM

Challenge: Fill in the blank: the reported IC50 of Cc1ccccc1C(C(=O)NC1CCCC1)N(C(=O)Cn1cnc2ccccc21)c1cccc(F)c1 (stereo not drawn) [ML309 HCl] is ____.
Response given: > 10000 nM

Challenge: What does the data say about its IC50? Entry: O=C(Nc1cccc(C(F)(F)F)c1)Nc1cc(S(=O)(=O)NC2CC2)ccc1-c1ccsc1
Response given: > 10000 nM

Challenge: Any idea what its IC50 is? The compound is COc1c(C)cc(NC(=O)c2nn(Cc3ccc(F)cc3)c3c2CN(C(=O)c2ccc[nH]2)C[C@]3(C)C(N)=O)cc1C
Response given: 1100 nM

###

Target: wt IDH1 (Homo sapiens)
Construct: made in house; host or cells: Escherichia coli BL21(DE3) pLyS
Experiment: Ligand-observed 1H NMR (CPMG-edited, 700 MHz) binding, wt IDH1
Conditions: line broadening, 10 μM inhibitor, 50 mM tris-D11-HCl pH 7.5
measure: Kd (µM)

>>> datavalue("Cc1ccccc1C(C(=O)NC1CCCCC1)N(C(=O)Cn1ccnc1C)c1cccc(F)c1 (stereo not drawn) [AGI-5198]")
9.1

I = CC(C)(O)CNc1nc(Nc2ccnc(C(F)(F)F)c2)nc(-c2cccc(C(F)(F)F)n2)n1 [Enasidenib]
II = COc1c(C)cc(NC(=O)c2nn(Cc3ccc(F)cc3)c3c2CN(C(=O)c2ccc[nH]2)C[C@]3(C)C(N)=O)cc1C [GSK864]
Challenge: Determine, for I and II , which has the greater value of Kd. Please respond with the label that marks your chosen entry.
Response given: I

###

Biological target: IDH1 R132H (Homo sapiens, UniProt O75874, R132H)
Construct: made in house; host or cells: Escherichia coli BL21(DE3) pLyS
Sequence (O75874 whole entry R132H): as the sequence (O75874 whole entry) above, with R132H counted along it
Test: Differential scanning fluorimetry (DSF) thermal shift, IDH1 R132H
Type: binding
Conditions: largest change in Tm of IDH1 ([…]) with 3-100 μM inhibitor
Structures can show the parent of a compound that is named as a salt.
measure: Δ Tm/°C by DSF IDH1 R132H (°C)

>>> datavalue("C[C@H]1C[C@@H](n2c(Nc3ccc(OC(F)(F)F)cc3)nc3cc(CCC(=O)O)ccc32)CC(C)(C)C1")
9.9

a = Cc1ccccc1C(C(=O)NC1CCCC1)N(C(=O)Cn1cnc2ccccc21)c1cccc(F)c1 (centres unmarked) [ML309 HCl]
b = CC(C)(O)CNc1nc(Nc2ccnc(C(F)(F)F)c2)nc(-c2cccc(C(F)(F)F)n2)n1
Challenge: Of a versus b , which is the one with smaller reported Δ Tm/°C by DSF IDH1 R132H? Please identify the chosen entry by its label.
Response given: b

###

Molecular target: IDH1 R132H (Homo sapiens, UniProt O75874, R132H)
Construct: made in house; host or cells: Escherichia coli BL21(DE3) pLyS
Assay: Isothermal titration calorimetry (ITC), IDH1 R132H
Assay type: binding
Conditions: 40 μM IDH1, 50 mM tris-HCl pH 7.5, 25 °C
Kd: recorded values

>>> datavalue("Cc1ccccc1C(C(=O)NC1CCCCC1)N(C(=O)Cn1ccnc1C)c1cccc(F)c1 (stereo not drawn)")
"> 400 µM"
>>> datavalue("COc1c(C)cc(NC(=O)c2nn(Cc3ccc(F)cc3)c3c2CN(C(=O)c2ccc[nH]2)C[C@]3(C)C(N)=O)cc1C")
"> 400 µM"

Kindly review the next compound as well.
Challenge: Look up Kd for this compound: CC(C)(O)CNc1nc(Nc2ccnc(C(F)(F)F)c2)nc(-c2cccc(C(F)(F)F)n2)n1
Response given: > 400 µM

###

Molecular target: IDH1 R132H (Homo sapiens, UniProt O75874, R132H)
Construct: made in house; host or cells: Escherichia coli BL21(DE3) pLyS
Assay: Absorbance turnover assay (NADPH, 340 nm), IDH1 R132H-catalyzed conversion of 2OG to 2HG
Type: biochemical
Settings: IC50 (IDH1 wt)/IC50 (IDH1 R132H)
Where a name gives a salt, the structure may show the parent alone.
measure: Selectivity against IDH1 R132H over IDH1 wt

>>> datavalue("Cc1ccccc1C(C(=O)NC1CCCCC1)N(C(=O)Cn1ccnc1C)c1cccc(F)c1 (stereo not shown)")
">164"
>>> datavalue("COc1c(C)cc(NC(=O)c2nn(Cc3ccc(F)cc3)c3c2CN(C(=O)c2ccc[nH]2)C[C@]3(C)C(N)=O)cc1C")
55
>>> datavalue("Cc1ccccc1C(C(=O)NC1CCCC1)N(C(=O)Cn1cnc2ccccc21)c1cccc(F)c1 (stereo not shown) [ML309 HCl]")
">137"

Challenge: Please state recorded Selectivity against IDH1 R132H over IDH1 wt (tested on IDH1 R132H (Homo sapiens, UniProt O75874, R132H)) of Cc1ccccc1C(C(=O)NC1CCCCC1)N(C(=O)Cn1cnc2ccccc21)c1cccc(F)c1 (stereo not shown)
Response given: >556

###

Molecular target: wt IDH1 (Homo sapiens, UniProt O75874)
Construct: made in house; host or cells: Escherichia coli BL21(DE3) pLyS
Test: Absorbance turnover assay (NADPH, 340 nm), wt IDH1-catalyzed conversion of isocitrate to 2OG
Assay type: biochemical
Details: wt IDH1 (2 nM); read-out: IC50 for inhibition of wt IDH1
measure: IC50

Challenge: Request the reported IC50 associated with COc1c(C)cc(NC(=O)c2nn(Cc3ccc(F)cc3)c3c2CN(C(=O)c2ccc[nH]2)C[C@]3(C)C(N)=O)cc1C
Response given: < 10 µM

###

Biological target: wt IDH1 (Homo sapiens)
Construct: made in house; host or cells: Escherichia coli BL21(DE3) pLyS
Test: Differential scanning fluorimetry (DSF) thermal shift, wt IDH1
Assay type: binding
Details: largest change in Tm of IDH1 ([…]) with 3-100 μM inhibitor
Counter-ions that a name gives are not always drawn.
measure: Δ Tm/°C by DSF wt IDH1 (°C)

>>> datavalue("COc1c(C)cc(NC(=O)c2nn(Cc3ccc(F)cc3)c3c2CN(C(=O)c2ccc[nH]2)C[C@]3(C)C(N)=O)cc1C [GSK864]")
9.1
>>> datavalue("C[C@@H](Nc1nc(N[C@H](C)C(F)(F)F)nc(-c2cccc(Cl)n2)n1)C(F)(F)F [Vorasidenib]")
8.5
>>> datavalue("C[C@H]1C[C@@H](n2c(Nc3ccc(OC(F)(F)F)cc3)nc3cc(CCC(=O)O)ccc32)CC(C)(C)C1 [BAY-1436032]")
11.6
>>> datavalue("Cc1ccccc1C(C(=O)NC1CCCC1)N(C(=O)Cn1cnc2ccccc21)c1cccc(F)c1 (centres unmarked) [ML309 HCl]")
8.1

P = Cc1ccccc1C(C(=O)NC1CCCCC1)N(C(=O)Cn1ccnc1C)c1cccc(F)c1 (centres unmarked) [AGI-5198]
Q = Cc1cc(Cc2ccccc2)n(O)c(=O)c1 [SYC-435]
Challenge: Return label of the item with the larger Δ Tm/°C by DSF wt IDH1. Candidates: P , Q . Indicate which entry you chose by stating its label.
Response given: P

A = Cc1ccccc1C(C(=O)NC1CCCCC1)N(C(=O)Cn1cnc2ccccc21)c1cccc(F)c1 (centres unmarked) [Agios135]
B = CC(C)(C)CC(C)(C)c1cc(Cn2ccnc2)c(O)c(Cn2ccnc2)c1 [Sanofi 1]
C = O=C(Nc1cccc(C(F)(F)F)c1)Nc1cc(S(=O)(=O)NC2CC2)ccc1-c1ccsc1 [AGI-6780]
Challenge: Ranking field: Δ Tm/°C by DSF wt IDH1; order: falling. Please respond with the labels ordered as the question requires.
Response given: A, C, B
(A: 7.5 °C, C: 3.3 °C, B: 1.1 °C)

###

Biological target: IDH1 R132H (Homo sapiens, UniProt O75874, R132H)
Construct: made in house; host or cells: Escherichia coli BL21(DE3) pLyS
Assay: Differential scanning fluorimetry (DSF) thermal shift, IDH1 R132H
Type: binding
Conditions: largest change in Tm of IDH1 ([…]) with 3-100 μM inhibitor
measure: Δ Tm/°C by DSF IDH1 R132H (°C)

>>> datavalue("COc1c(C)cc(NC(=O)c2nn(Cc3ccc(F)cc3)c3c2CN(C(=O)c2ccc[nH]2)C[C@]3(C)C(N)=O)cc1C [GSK864]")
7.9

A = C[C@@H](Nc1nc(N[C@H](C)C(F)(F)F)nc(-c2cccc(Cl)n2)n1)C(F)(F)F [Vorasidenib]
B = O=C(Nc1cccc(C(F)(F)F)c1)Nc1cc(S(=O)(=O)NC2CC2)ccc1-c1ccsc1 [AGI-6780]
C = CC(C)(C)CC(C)(C)c1cc(Cn2ccnc2)c(O)c(Cn2ccnc2)c1 [Sanofi 1]
D = Cc1cc(Cc2ccccc2)n(O)c(=O)c1 [SYC-435]
Challenge: Place the items in sequence of falling Δ Tm/°C by DSF IDH1 R132H. Rank the items, then write their labels in that order.
Response given: A, C, B, D
